- System: T47D
- EXPERIMENT NOTES: Growth inhibition of human T47D cells at 10^-5 M incubated for 48 hrs by sulforhodamine B assay
- Type: functional
- CONDITIONS USED: read-out: GI
PARAMETER MEASURED: inhibition of growth at 10 µM (%)
Kindly answer with a numeric value in %, unit omitted.

Ask: // inhibition of growth at 10 µM lookup, key: O=C1CC(=O)N(C2=Nc3c(sc4ccc(Cl)cc34)C(c3cccc([N+](=O)[O-])c3)N2)N1 (stereo not given)
Result: 20.9

Ask: // inhibition of growth at 10 µM lookup, key: O=C1CSC2=Nc3c(sc4ccc(Cl)cc34)C(c3ccc4ccccc4c3)N12 (stereo not given)
Result: 15.7

Ask: // inhibition of growth at 10 µM lookup, key: Cc1cc(C)n(C2=Nc3c(sc4ccc(Cl)cc34)C(c3cccc([N+](=O)[O-])c3)N2)n1 (stereo not given)
Result: 13.2

Ask: // inhibition of growth at 10 µM lookup, key: N#Cc1cnn(C2=Nc3c(sc4ccc(Cl)cc34)C(c3cccc([N+](=O)[O-])c3)N2)c1N (stereo not given)
Result: 10.1

Ask: // inhibition of growth at 10 µM lookup, key: N=C1Nc2c(sc3ccc(Cl)cc23)C(c2cccc([N+](=O)[O-])c2)N1 (stereo not given)
Result: 1.02

---

- Tested on: M14
- EXPERIMENT NOTES: Growth inhibition of human M14 cells at 10^-5 M incubated for 48 hrs by sulforhodamine B assay
- Type: functional
- CONDITIONS USED: M14, 48 h, read-out: GI
PARAMETER MEASURED: inhibition of growth at 10 µM (%)
Kindly answer with a numeric value in %, unit omitted.

Check out these entries, answers already filled in.
compound="NNC1=Nc2c(sc3ccc(Cl)cc23)C(c2cccc([N+](=O)[O-])c2)N1 (stereo not given)" target_of_assay=M14 obs_value=-4.43
compound="N#Cc1cnn(C2=Nc3c(sc4ccc(Cl)cc34)C(c3cccc([N+](=O)[O-])c3)N2)c1N (stereo not given)" target_of_assay=M14 obs_value=-2.52
compound="N=C1Nc2c(sc3ccc(Cl)cc23)C(c2cccc(Br)c2)N1 (stereo not given)" target_of_assay=M14 obs_value=1.65
compound="O=[N+]([O-])c1cccc(C2NC(N3CCOCC3)=Nc3c2sc2ccc(Cl)cc32)c1 (stereo not given)" target_of_assay=M14 obs_value=-1.17

Next item in the queue.
Ask: // inhibition of growth at 10 µM lookup, key: Cc1cc(C)n(C2=Nc3c(sc4ccc(Cl)cc34)C(c3cccc([N+](=O)[O-])c3)N2)n1 (stereo not given)
Result: -4.17

---

Property: inhibition of growth at 10 µM; scope: individual molecules
- Test system: SN12C
- EXPERIMENT NOTES: Growth inhibition of human SN12C cells at 10^-5 M incubated for 48 hrs by sulforhodamine B assay
- Assay type: functional
- CONDITIONS USED: read-out: GI
Kindly answer with a numeric value in %, unit omitted.

Check out these entries, answers already filled in.
molecule="CCOC(=O)CSC1=Nc2c(sc3ccc(Cl)cc23)C(c2cccc([N+](=O)[O-])c2)N1 (stereo unspecified)" target_of_assay=SN12C unit_label=% obs_value=2.9
molecule="O=C1Nc2c(sc3ccc(Cl)cc23)C(c2cccc([N+](=O)[O-])c2)N1 (stereo unspecified)" target_of_assay=SN12C unit_label=% obs_value=7.07
molecule="O=[N+]([O-])c1cccc(C2NC(=S)Nc3c2sc2ccc(Cl)cc32)c1 (stereo unspecified)" target_of_assay=SN12C unit_label=% obs_value=7.47
molecule="O=C1CC(=O)N(C2=Nc3c(sc4ccc(Cl)cc34)C(c3cccc([N+](=O)[O-])c3)N2)N1 (stereo unspecified)" target_of_assay=SN12C unit_label=% obs_value=18.3
molecule="O=[N+]([O-])c1cccc(C2NC(N3CCOCC3)=Nc3c2sc2ccc(Cl)cc32)c1 (stereo unspecified)" target_of_assay=SN12C unit_label=% obs_value=3.85
molecule="O=C1Nc2c(sc3ccc(Cl)cc23)C(c2cccc(Br)c2)N1 (stereo unspecified)" target_of_assay=SN12C unit_label=% obs_value=2.71

Next item in the queue.
Ask: // inhibition of growth at 10 µM lookup, key: Oc1ccccc1C1NC(=S)Nc2c1sc1ccc(Cl)cc21 (stereo unspecified)
Result: 9.77

Data provenance is ChEMBL document CHEMBL4414672.
